measured.on: Bcl-2 protein (Recombinant Human Bcl-2 Protein) (Homo sapiens)
Construct: purchased Novus NBP2-34889
assay.comment: Binding evaluation of mixture library compounds to Bcl-2 using AS-MS (affinity selection mass spectrometry)
cond: AS-MS, mixture of 1200 compounds, Bcl-2; ASMS Ratio(%)=(A−C)/B×100; replicate n = 1
Recorded measurements of ASMS ratio (%) n = 1, one per entry

[
  {
    "molecule": "CCOc1cncc(-c2cc(C(=O)N3CCN(c4ccc(C(=O)NCC(F)(F)F)cc4)CC3)cc(C(C)(C)C)c2)c1",
    "ASMS ratio (%) n = 1": 0.6
  },
  {
    "molecule": "CCOc1cccc(-c2ccccc2CN2CCN(c3ccc(C(=O)NCC(F)(F)F)cc3)CC2)c1",
    "ASMS ratio (%) n = 1": 1.5
  },
  {
    "molecule": "CCOc1cncc(-c2ccccc2CCC(=O)N2CCN(c3ccc(C(=O)NCC(F)(F)F)cc3)CC2)c1",
    "ASMS ratio (%) n = 1": "−0.3"
  },
  {
    "molecule": "CCOc1cncc(-c2cc(C(=O)N3CCN(c4ccc(C(=O)NCC56CC7CC(CC(C7)C5)C6)nn4)CC3)cc(C(C)(C)C)c2)c1",
    "ASMS ratio (%) n = 1": 12.1
  },
  {
    "molecule": "CCOc1cccc(-c2ccc(CN3CCN(c4ccc(C(=O)NCC56CC7CC(CC(C7)C5)C6)cc4)CC3)c3ccccc23)c1",
    "ASMS ratio (%) n = 1": "−32.6"
  },
  {
    "molecule": "CCOc1cccc(-c2ccccc2CCC(=O)N2CCN(c3ccc(C(=O)NCC45CC6CC(CC(C6)C4)C5)nn3)CC2)c1",
    "ASMS ratio (%) n = 1": 11.2
  },
  {
    "molecule": "CCOc1cncc(-c2ccc(CN3CCN(c4ccc(C(=O)NCC(F)(F)F)nn4)CC3)cc2F)c1",
    "ASMS ratio (%) n = 1": 0.8
  },
  {
    "molecule": "CCOc1cncc(-c2ccc(C(C)N3CCN(c4ccc(C(=O)NCC56CC7CC(CC(C7)C5)C6)cc4)CC3)c(F)c2)c1 (centres unmarked)",
    "ASMS ratio (%) n = 1": 6.4
  },
  {
    "molecule": "CCOc1cccc(-c2ccc(C(C)N3CCN(c4ccc(C(=O)NCC(F)(F)F)cc4)CC3)c(F)c2)c1 (centres unmarked)",
    "ASMS ratio (%) n = 1": 0.0
  },
  {
    "molecule": "CCOc1cccc(-c2ccccc2CCC(=O)N2CCN(c3ccc(C(=O)NCC(F)(F)F)nn3)CC2)c1",
    "ASMS ratio (%) n = 1": "−0.1"
  },
  {
    "molecule": "CCOc1cccc(-c2ccc(C(=O)N3CCN(c4ccc(C(=O)NCC(F)(F)F)cc4)CC3)c3ccccc23)c1",
    "ASMS ratio (%) n = 1": 4.8
  },
  {
    "molecule": "CCOc1cncc(-c2cc(OC)c(CN3CCN(c4ccc(C(=O)NCC56CC7CC(CC(C7)C5)C6)cc4)CC3)c(OC)c2)c1",
    "ASMS ratio (%) n = 1": 0.0
  },
  {
    "molecule": "CCOc1cncc(-c2cc(OC)c(CN3CCN(c4ccc(C(=O)NCC56CC7CC(CC(C7)C5)C6)nn4)CC3)c(OC)c2)c1",
    "ASMS ratio (%) n = 1": 0.0
  },
  {
    "molecule": "CCOc1cccc(-c2cc(OC)c(CN3CCN(c4ccc(C(=O)NCC(F)(F)F)nn4)CC3)c(OC)c2)c1",
    "ASMS ratio (%) n = 1": 4.2
  }
]

###

measured.on: Bcl-2 protein (Recombinant Human Bcl-2 Protein) (Homo sapiens, UniProt P10415)
Construct: purchased Novus NBP2-34889
Sequence (P10415 whole entry): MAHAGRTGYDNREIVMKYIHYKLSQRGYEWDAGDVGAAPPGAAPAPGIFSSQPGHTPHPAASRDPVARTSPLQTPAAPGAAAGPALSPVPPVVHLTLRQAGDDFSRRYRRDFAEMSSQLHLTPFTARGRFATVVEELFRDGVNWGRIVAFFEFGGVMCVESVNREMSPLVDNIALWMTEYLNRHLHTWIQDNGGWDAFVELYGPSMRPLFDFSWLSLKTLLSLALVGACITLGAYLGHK
assay.comment: Binding evaluation of mixture library compounds to Bcl-2 using AS-MS (affinity selection mass spectrometry)
cond: n = 1
Quick reference: ASMS ratio (%) of the listed items.
readout: ASMS ratio (%)

[
  {
    "compound": "CCOc1cccc(-c2ccc(C(C)N3CCN(c4ccc(C(=O)NS(=O)(=O)c5ccc(NCCSc6ccccc6)c(C(F)(F)F)c5)cc4)CC3)cc2)c1 (centres unmarked) [B2R097-01]",
    "measure.unit": "%",
    "observed": 6.6
  },
  {
    "compound": "CCOc1cncc(C#Cc2ccccc2CN2CCN(c3ccc(C(=O)NS(C)(=O)=O)nn3)CC2)c1 [B2I096-01]",
    "measure.unit": "%",
    "observed": 0.0
  },
  {
    "compound": "CCOc1cncc(-c2csc(CN3CCN(c4ccc(C(=O)NS(=O)(=O)c5ccc(NCCSc6ccccc6)c(C(F)(F)F)c5)nn4)CC3)c2)c1 [B2R094-01]",
    "measure.unit": "%",
    "observed": 18.8
  },
  {
    "compound": "CCOc1cccc(-c2ccc(CN3CCN(c4ccc(C(=O)NS(=O)(=O)CCC(F)(F)F)cc4)CC3)c3ccccc23)c1 [B2N065-01]",
    "measure.unit": "%",
    "observed": 0.0
  },
  {
    "compound": "CCOc1cccc(-c2ccccc2CN2CCN(c3ccc(C(=O)NS(=O)(=O)c4ccc(NCCSc5ccccc5)c(C(F)(F)F)c4)cc3)CC2)c1 [B2R045-01]",
    "measure.unit": "%",
    "observed": 4.8
  },
  {
    "compound": "CCOc1cncc(-c2ccc(CN3CCN(c4ccc(C(=O)NS(=O)(=O)CCC(F)(F)F)nn4)CC3)c3ccccc23)c1 [B2N092-01]",
    "measure.unit": "%",
    "observed": 0.0
  },
  {
    "compound": "CCOc1cccc(-c2cc(CN3CCN(c4ccc(C(=O)NS(=O)(=O)CCC(F)(F)F)cc4)CC3)cc(OCC)c2)c1 [B2N055-01]",
    "measure.unit": "%",
    "observed": 0.0
  },
  {
    "compound": "CCOc1cccc(-c2ccc(CN3CCN(c4ccc(C(=O)NS(C)(=O)=O)nn4)CC3)c(CC)c2)c1 [B2I075-01]",
    "measure.unit": "%",
    "observed": 0.0
  },
  {
    "compound": "CCOc1cncc(-c2ccc(C(=O)N3CCN(c4ccc(C(=O)NS(=O)(=O)CCC(F)(F)F)nn4)CC3)c3ccccc23)c1 [B2N014-01]",
    "measure.unit": "%",
    "observed": 0.0
  },
  {
    "compound": "CCOc1cncc(-c2ccc(CN3CCN(c4ccc(C(=O)NS(=O)(=O)C(C)(C)C)cc4)CC3)cc2C)c1 [B2L048-01]",
    "measure.unit": "%",
    "observed": 3.9
  },
  {
    "compound": "CCOc1cccc(C#Cc2cncc(C(=O)N3CCN(c4ccc(C(=O)NS(=O)(=O)C(C)(C)C)cc4)CC3)c2)c1 [B2L031-01]",
    "measure.unit": "%",
    "observed": 0.0
  },
  {
    "compound": "CCOc1cccc(-c2ccc(CN3CCN(c4ccc(C(=O)NS(=O)(=O)C(C)(C)C)nn4)CC3)c3ccccc23)c1 [B2L091-01]",
    "measure.unit": "%",
    "observed": 0.0
  },
  {
    "compound": "CCOc1cncc(-c2ccc(C(=O)N3CCN(c4ccc(C(=O)NS(=O)(=O)C(C)(C)C)cc4)CC3)cc2C)c1 [B2L026-01]",
    "measure.unit": "%",
    "observed": 0.0
  },
  {
    "compound": "CCOc1cncc(-c2cc(CN3CCN(c4ccc(C(=O)NS(=O)(=O)C(C)(C)C)cc4)CC3)cc(C(F)(F)F)c2)c1 [B2L062-01]",
    "measure.unit": "%",
    "observed": 0.0
  }
]

###

measured.on: Bcl-2 protein (Recombinant Human Bcl-2 Protein) (Homo sapiens)
Construct: purchased Novus NBP2-34889
assay.comment: Binding evaluation of mixture library compounds to Bcl-2 using AS-MS (affinity selection mass spectrometry)
cond: AS-MS, mixture library, Bcl-2; replicate n = 1; ASMS Ratio(%)=(A−C)/B×100
Measured ASMS ratio (%) n = 1 by item
readout: ASMS ratio (%) n = 1

[
  {
    "smiles.entry": "CCOc1cccc(-c2ccc(CN3CCN(c4ccc(C(=O)NS(=O)(=O)CC56CC7CC(CC(C7)C5)C6)nn4)CC3)c3ccccc23)c1",
    "measure.unit": "%",
    "observed": "−2.6"
  },
  {
    "smiles.entry": "CCOc1cncc(C#Cc2ccccc2CN2CCN(c3ccc(C(=O)N(CC)CC)cc3)CC2)c1",
    "measure.unit": "%",
    "observed": 0.0
  },
  {
    "smiles.entry": "CCOc1cncc(-c2cc(CN3CCN(c4ccc(C(=O)NS(=O)(=O)CC56CC7CC(CC(C7)C5)C6)nn4)CC3)cc(C(F)(F)F)c2)c1",
    "measure.unit": "%",
    "observed": 12.0
  },
  {
    "smiles.entry": "CCOc1cncc(C#Cc2ccccc2C(=O)N2CCN(c3ccc(C(=O)NS(C)(=O)=O)nn3)CC2)c1",
    "measure.unit": "%",
    "observed": 0.0
  },
  {
    "smiles.entry": "CCOc1cncc(-c2cc(C(=O)N3CCN(c4ccc(C(=O)NS(=O)(=O)c5ccc(NCCSc6ccccc6)c([N+](=O)[O-])c5)cc4)CC3)cc(C(C)(C)C)c2)c1",
    "measure.unit": "%",
    "observed": 3.3
  },
  {
    "smiles.entry": "CCOc1cncc(-c2ccc(C(=O)N3CCN(c4ccc(C(=O)NS(=O)(=O)CC56CC7CC(CC(C7)C5)C6)cc4)CC3)c3ccccc23)c1",
    "measure.unit": "%",
    "observed": 2.0
  }
]
